System: Staph. aureus
Assay: Expanded Spectrum MIC (Table II)
Type: cell-based
Settings: Staphylococcus aureus, strain S239
Measured Endpoint: MIC (µg/mL)

Compound | Measured Endpoint | Result Units | Obs Value
CC1=C(C(=O)O)N2C(=O)C(NC(=O)C(N)c3csc4ccccc34)C2SC1 (stereo not drawn) [Ex. 9] | MIC | µg/mL | 2
CC1=C(C(=O)O)N2C(=O)C(NC(=O)[C@H](N)c3csc4cc(F)ccc34)C2SC1 (stereo partly drawn) [Ex. 17] | MIC | µg/mL | 1
CC1=C(C(=O)O)N2C(=O)C(NC(=O)[C@H](N)c3csc4cccc(F)c34)C2SC1 (stereo partly drawn) [Ex. 19] | MIC | µg/mL | 8
CON=C(C(=O)NC1C(=O)N2C(C(=O)O)=C(C)CSC12)c1csc2cc(OC)ccc12 (stereo not drawn) [Ex. 22] | MIC | µg/mL | 2
CC1=C(C(=O)O)N2C(=O)C(NC(=O)[C@H](N)c3csc4ccc(F)cc34)C2SC1 (stereo partly drawn) [Ex. 18] | MIC | µg/mL | 2
CC1=C(C(=O)O)N2C(=O)C(NC(=O)[C@H](N)c3csc4c(F)cccc34)C2SC1 (stereo partly drawn) [Ex. 20] | MIC | µg/mL | 2

----------
Tested on: H. influenzae
Experiment: Expanded Spectrum MIC (Table II)
Type: cell-based
Details: Haemophilus influenzae, strain M366
Excerpt: A typical and preferred compound provided by this invention is 7-(3-benzothienyl)glycylamido-3-methyl-3-cephem-4-carboxylic acid, the compound illustrated in Example 9. The antibacterial activity of this compound has been determined in standard in vitro agar dilution assays against a variety of gram positive and gram negative microorganism. […]
Measured Endpoint: MIC

Compound | Obs Value
CON=C(C(=O)NC1C(=O)N2C(C(=O)O)=C(C)CSC12)c1csc2cc(OC)ccc12 (stereo not drawn) | 64 µg/mL
CC1=C(C(=O)O)N2C(=O)C(NC(=O)C(N)c3csc4ccccc34)C2SC1 (stereo not drawn) | 64 µg/mL
CC1=C(C(=O)O)N2C(=O)C(NC(=O)[C@H](N)c3csc4ccc(F)cc34)C2SC1 (stereo partly drawn) | 64 µg/mL
CC1=C(C(=O)O)N2C(=O)C(NC(=O)[C@H](N)c3csc4cccc(F)c34)C2SC1 (stereo partly drawn) | 64 µg/mL
CC1=C(C(=O)O)N2C(=O)C(NC(=O)[C@H](N)c3csc4c(F)cccc34)C2SC1 (stereo partly drawn) | 64 µg/mL
CC1=C(C(=O)O)N2C(=O)C(NC(=O)[C@H](N)c3csc4cc(F)ccc34)C2SC1 (stereo partly drawn) | 64 µg/mL

----------
Tested on: H. influenzae
Assay: Expanded Spectrum MIC (Table II)
Type: cell-based
Settings: Haemophilus influenzae, strain 164

Molecule | MIC
CC1=C(C(=O)O)N2C(=O)C(NC(=O)[C@H](N)c3csc4c(F)cccc34)C2SC1 (stereo partly drawn) [Ex. 20] | 2 µg/mL
CC1=C(C(=O)O)N2C(=O)C(NC(=O)[C@H](N)c3csc4cccc(F)c34)C2SC1 (stereo partly drawn) [Ex. 19] | 4 µg/mL
CON=C(C(=O)NC1C(=O)N2C(C(=O)O)=C(C)CSC12)c1csc2cc(OC)ccc12 (stereo not drawn) [Ex. 22] | 1 µg/mL
CC1=C(C(=O)O)N2C(=O)C(NC(=O)C(N)c3csc4ccccc34)C2SC1 (stereo not drawn) [Ex. 9] | 1 µg/mL
CC1=C(C(=O)O)N2C(=O)C(NC(=O)[C@H](N)c3csc4ccc(F)cc34)C2SC1 (stereo partly drawn) [Ex. 18] | 1 µg/mL
CC1=C(C(=O)O)N2C(=O)C(NC(=O)[C@H](N)c3csc4cc(F)ccc34)C2SC1 (stereo partly drawn) [Ex. 17] | 0.5 µg/mL

----------
System: Staph. epi
Experiment: Expanded Spectrum MIC (Table II)
Assay type: cell-based
Details: strain 219

Molecule | MIC
CC1=C(C(=O)O)N2C(=O)C(NC(=O)[C@H](N)c3csc4c(F)cccc34)C2SC1 (stereo partly shown) | 2 µg/mL
CON=C(C(=O)NC1C(=O)N2C(C(=O)O)=C(C)CSC12)c1csc2cc(OC)ccc12 (stereo not shown) | 2 µg/mL
CC1=C(C(=O)O)N2C(=O)C(NC(=O)[C@H](N)c3csc4cc(F)ccc34)C2SC1 (stereo partly shown) | 0.5 µg/mL
CC1=C(C(=O)O)N2C(=O)C(NC(=O)[C@H](N)c3csc4ccc(F)cc34)C2SC1 (stereo partly shown) | 1 µg/mL

----------
Attribute: MIC
Test system: Strep. PN
Assay: Agar Dilution MIC (Table I)
Assay type: cell-based
Details: strain PARK
Measured Endpoint: MIC (µg/mL)

Compound | Test System | Obs Value
CC1=C(C(=O)O)N2C(=O)C(NC(=O)[C@H](N)c3csc4cc(Cl)ccc34)C2SC1 (stereo partly shown) [Ex. 37B] | Strep. PN | 1
CC1=C(C(=O)O)N2C(=O)C(NC(=O)[C@@H](N)c3csc4ccc(Cl)cc34)C2SC1 (stereo partly shown) [Ex. 38A] | Strep. PN | 2
CC1=C(C(=O)O)N2C(=O)C(NC(=O)C(N)c3csc4ccccc34)C2SC1 (stereo not shown) | Strep. PN | 0.5
CC1=C(C(=O)O)N2C(=O)C(NC(=O)[C@H](N)c3csc4cccc(Cl)c34)C2SC1 (stereo partly shown) [Ex. 36B] | Strep. PN | 8

----------
Attribute: MIC
System: Bacteroides thetaiotaomicron
Experiment: Susceptibility of Anaerobic Bacteroides Isolates by the Agar-Dilution Method (Table III)
Type: cell-based
Details: 24 h, strain 1900A, readings 24 hrs. after incubation

Molecule | MIC, µg/mL
CC1=C(C(=O)O)N2C(=O)C(NC(=O)[C@H](N)c3csc4ccc(F)cc34)C2SC1 (stereo partly drawn) [Ex. 18] | 32
CC1=C(C(=O)O)N2C(=O)C(NC(=O)[C@H](N)c3csc4cc(F)ccc34)C2SC1 (stereo partly drawn) [Ex. 17] | 32
CO[C@@]1(NC(=O)C(C(=O)O)c2ccc(O)cc2)C(=O)N2C(C(=O)O)=C(CSc3nnnn3C)CO[C@@H]21 (stereo partly drawn) [moxalactam, reference compound] | 64
CC1=C(C(=O)O)N2C(=O)C(NC(=O)[C@H](N)c3csc4c(F)cccc34)C2SC1 (stereo partly drawn) [Ex. 20] | 32
CC1=C(C(=O)O)N2C(=O)C(NC(=O)C(N)c3csc4ccccc34)C2SC1 (stereo not drawn) [Ex. 9] | 16
CC1=C(C(=O)O)N2C(=O)C(NC(=O)[C@H](N)c3csc4cccc(F)c34)C2SC1 (stereo partly drawn) [Ex. 19] | 32

----------
Tested on: Klebsiella
Assay: Agar Dilution MIC (Table I)
Format: cell-based
Conditions: Klebsiella, strain X68; read-out: Agar Dilution MIC

Compound | Result Units | MIC
CC1=C(C(=O)O)N2C(=O)C(NC(=O)[C@@H](N)c3csc4cc(Cl)ccc34)C2SC1 (stereo partly shown) [Ex. 37A] | µg/mL | 128
CC1=C(C(=O)O)N2C(=O)C(NC(=O)[C@H](N)c3csc4cc(Cl)ccc34)C2SC1 (stereo partly shown) [Ex. 37B] | µg/mL | 128
CC1=C(C(=O)O)N2C(=O)C(NC(=O)[C@@H](N)c3csc4ccc(Cl)cc34)C2SC1 (stereo partly shown) [Ex. 38A] | µg/mL | 64
CC1=C(C(=O)O)N2C(=O)C(NC(=O)[C@H](N)c3csc4cccc(F)c34)C2SC1 (stereo partly shown) | µg/mL | 128
CC1=C(C(=O)O)N2C(=O)C(NC(=O)[C@H](N)c3csc4ccc(Cl)cc34)C2SC1 (stereo partly shown) [Ex. 38B] | µg/mL | 64
CC1=C(C(=O)O)N2C(=O)C(NC(=O)C(N)c3csc4ccccc34)C2SC1 (stereo not shown) | µg/mL | 128
CC1=C(C(=O)O)N2C(=O)C(NC(=O)[C@H](N)c3csc4ccc(F)cc34)C2SC1 (stereo partly shown) | µg/mL | 128
CC1=C(C(=O)O)N2C(=O)C(NC(=O)[C@H](N)c3csc4cc(F)ccc34)C2SC1 (stereo partly shown) | µg/mL | 128
C=CC1=C(C(=O)O)N2C(=O)C(NC(=O)[C@H](N)c3csc4ccccc34)C2SC1 (stereo partly shown) | µg/mL | 128
CON=C(C(=O)NC1C(=O)N2C(C(=O)O)=C(C)CSC12)c1csc2cc(OC)ccc12 (stereo not shown) | µg/mL | 128

----------
Tested on: Bacteroides fragilis
Assay: Susceptibility of Anaerobic Bacteroides Isolates by the Agar-Dilution Method (Table III)
Type: cell-based
Details: 24 h, strain 1877, readings 24 hrs. after incubation
Procedure: A typical and preferred compound provided by this invention is 7-(3-benzothienyl)glycylamido-3-methyl-3-cephem-4-carboxylic acid, the compound illustrated in Example 9. The antibacterial activity of this compound has been determined in standard in vitro agar dilution assays against a variety of gram positive and gram negative microorganism. […] Agar-Dilution Method MIC (μg/ml) readings 24 hrs. after incubation
Measured Endpoint: MIC (µg/mL)

Compound | Test System | Obs Value
CC1=C(C(=O)O)N2C(=O)C(NC(=O)[C@H](N)c3csc4c(F)cccc34)C2SC1 (stereo partly drawn) [Ex. 20] | Bacteroides fragilis | 16
CC1=C(C(=O)O)N2C(=O)C(NC(=O)[C@H](N)c3csc4ccc(F)cc34)C2SC1 (stereo partly drawn) [Ex. 18] | Bacteroides fragilis | 16
CC1=C(C(=O)O)N2C(=O)C(NC(=O)[C@H](N)c3csc4cc(F)ccc34)C2SC1 (stereo partly drawn) [Ex. 17] | Bacteroides fragilis | 8
CC1=C(C(=O)O)N2C(=O)C(NC(=O)C(N)c3csc4ccccc34)C2SC1 (stereo not drawn) [Ex. 9] | Bacteroides fragilis | 8
CO[C@@]1(NC(=O)C(C(=O)O)c2ccc(O)cc2)C(=O)N2C(C(=O)O)=C(CSc3nnnn3C)CO[C@@H]21 (stereo partly drawn) [moxalactam, reference compound] | Bacteroides fragilis | 2
CC1=C(C(=O)O)N2C(=O)C(NC(=O)[C@H](N)c3csc4cccc(F)c34)C2SC1 (stereo partly drawn) [Ex. 19] | Bacteroides fragilis | 8
